Compiled literature pKi, tested on 5-hydroxytryptamine receptor 1A (Homo sapiens, UniProt P08908).
study-target: 5-hydroxytryptamine receptor 1A (Homo sapiens, UniProt P08908)
Sequence (P08908 whole entry): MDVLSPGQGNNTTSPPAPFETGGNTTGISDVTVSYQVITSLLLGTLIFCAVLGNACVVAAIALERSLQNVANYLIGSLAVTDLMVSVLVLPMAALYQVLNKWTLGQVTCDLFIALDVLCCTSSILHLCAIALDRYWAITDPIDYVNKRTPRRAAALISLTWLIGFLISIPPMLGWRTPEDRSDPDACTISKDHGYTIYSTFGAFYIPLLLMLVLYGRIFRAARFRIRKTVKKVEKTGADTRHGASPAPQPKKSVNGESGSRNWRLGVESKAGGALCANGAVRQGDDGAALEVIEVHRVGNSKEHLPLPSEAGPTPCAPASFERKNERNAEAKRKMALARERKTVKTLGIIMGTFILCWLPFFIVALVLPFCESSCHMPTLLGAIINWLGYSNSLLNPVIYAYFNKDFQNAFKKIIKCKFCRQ
pKi: −log10 of the molar value.
readout-type: pKi

Consider the reported pKi for these compounds:
compound: O=c1[nH]c2ccc(N3CCN(Cc4cncc(-c5ccccc5)c4)CC3)cc2[nH]1
pKi: 8.28

compound: NC(=O)c1ccccc1N1CCN(CCCCCC(=O)NC2CCCc3ccccc32)CC1 (stereo not drawn)
pKi: 6.31

compound: Nc1c(Cl)cc(-c2nn(C3CCN(CCc4ccccc4)CC3)c(=O)o2)c2c1OCCO2
pKi: 5.99

compound: O=C(CCCCCN1CCN(c2ccccc2O)CC1)NC1CCCc2ccccc21 (stereo not drawn)
pKi: 7.62

compound: COc1ccc(OC[C@H]2CN(C)CC[C@@H]2c2ccccc2)cc1
pKi: 5.64

compound: CCc1nn(CCCN2CCN(c3cccc(Cl)c3)CC2)c(=O)n1CC
pKi: 7.07

P. O=C(NCCN1CCN(c2cccc3c2OCC(CO)O3)CC1)c1ccc(F)cc1 (stereo not drawn)
Q. Fc1ccc(-c2cncc(CN3CCN(c4cccc5c4OCCO5)CC3)c2)cc1
Query block: Returns the identifier with the smallest measured pKi among P and Q . Identify your pick by its label.
Result block: Q

1. CC(C)(C)NCC(O)COc1ccccc1C1CCCC1 (single isomer, unassigned; (-))
2. N#Cc1ccccc1N1CCN(CCCCCC(=O)NC2CCCc3ccccc32)CC1 (stereo not drawn)
Query block: Name the one with the greater pKi value, either 1 or 2 as given. Identify your pick by its label.
Result block: 1
(1: 8.10, 2: 7.78)

P. O=c1[nH]c2ccc(C3CCN(Cc4ccc(-c5ccc(F)cc5)cc4)CC3)cc2[nH]1
Q. O=c1[nH]c2ccc(C3CCN(Cc4ccc(-c5ccccc5)cc4)CC3)cc2[nH]1
Query block: Returns the identifier with the smallest measured pKi among P and Q . Identify your pick by its label.
Result block: Q
(Q: 7.47, P: 7.79)
